Listed here are compounds together with their documented melting point.

Examples from the recorded data:
Q: // melting point lookup, key: Cc1ccc(S(=O)(=O)N2CC(=Cc3ccccc3F)C(=O)C(=Cc3ccccc3F)C2)cc1 [Compound 20]
Result: 162 to 163 °C

Q: Please give the measured melting point for this compound: O=C1C(=Cc2ccccc2F)CN(C(=O)C2CCCCC2C(=O)O)CC1=Cc1ccccc1F (stereo not shown) [Compound 17]
Result: 96 to 98 °C

Q: Give its melting point value. Item: CCCCCCCCCCCCCCCCCC(=O)N1CC(=Cc2ccccc2F)C(=O)C(=Cc2ccccc2F)C1 [Compound 25]
Result: 70 to 71 °C

# evaluate next
Q: Return reported melting point; argument: O=C(O)CCCC(=O)N1CC(=Cc2ccccc2F)C(=O)C(=Cc2ccccc2F)C1 [Compound 15]
Result: 167 to 168 °C
